- Test Method Notes: inhibitors of TNFa-induced NFkB p65 translocation, primary screen, imaging, HUVEC, MLSMR starter and 10KST1 sets (AID 438);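 note: compound added about 3h40 before a 20 min TNFalpha stimulation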
- Stated Conditions: HUVEC TNFa-induced p65 nuclear translocation; measured here: nuclei count (cytotoxicity indicator), at 2.08 µM
Value Type: cell count

{"Compound": "CC(NC(=O)Nc1cccnc1)(C(F)(F)F)C(F)(F)F", "Obs Value": 706}
{"Compound": "N#CC1=C(N)C(C#N)(C#N)[C@H](c2ccsc2)[C@H]2COCC=C12", "Obs Value": 337}
{"Compound": "CCC1(C)Cc2c(sc(NC(=O)CCC(=O)O)c2C#N)CO1 (configuration not stated)", "Obs Value": 525}
{"Compound": "O=C(CC1SC2=NCCN2C1=O)Nc1ccccc1 (configuration not stated)", "Obs Value": 693}
{"Compound": "CC(=O)/C=C(\\C)NCCNc1c(F)c(F)c(CO)c(F)c1F", "Obs Value": 570}
{"Compound": "CCOC(=O)CSc1nc2sc(C)c(C)c2c(=O)n1C", "Obs Value": 259}
{"Compound": "CCc1cc(=O)oc2cc(C)c(CN3CCCC3)c(O)c12", "Obs Value": 666}

----------
- Test Method Notes: inhibitors of E-selectin induction by TNFa, primary screen, imaging, HUVEC, immunofluorescence, MLSMR starter and 10KST1 sets (AID 487);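 note: 100% = median nuclei count of all wells on the same plate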
- Stated Conditions: HUVEC TNFalpha-induced E-selectin immunofluorescence imaging, at 2 µM; measured here: cell number, toxicity

{"Molecule": "COc1cccc(OCc2nc3ccccc3[nH]2)c1", "Result Units": "%", "nuclei count": 114}
{"Molecule": "COCCCN1C(=O)C(=O)/C(=C(/O)c2ccc(OCC(C)C)cc2C)C1c1cccnc1 (configuration not stated)", "Result Units": "%", "nuclei count": 110}
{"Molecule": "CCOC(=O)CC(=O)CSc1nnc2sc3ccccc3n12", "Result Units": "%", "nuclei count": 174}
{"Molecule": "COc1ccc(C2CC(c3ccc(Cl)cc3Cl)n3nc(N)nc3N2)cc1 (configuration not stated)", "Result Units": "%", "nuclei count": 101}
{"Molecule": "CCc1noc(C)c1C(=O)NCCc1ccc(OC)c(OC)c1", "Result Units": "%", "nuclei count": 96.9}
{"Molecule": "CCOC(=O)N1CCC(NC(=O)Cn2ncc3c4ccccc4n(C)c3c2=O)CC1", "Result Units": "%", "nuclei count": 105}
{"Molecule": "CN(C)S(=O)(=O)c1cccc(C(=O)Nc2cccnc2)c1", "Result Units": "%", "nuclei count": 128}
{"Molecule": "CCc1nc(NCCCN2CCOCC2)c2oc3ccccc3c2n1", "Result Units": "%", "nuclei count": 103}
{"Molecule": "CCOC(=O)C1=C(C)Nc2nc(SCC(=O)OC)nn2C1c1cc(F)cc(F)c1 (configuration not stated)", "Result Units": "%", "nuclei count": 96}
{"Molecule": "COc1ccc(-c2nc3c(Br)c(N)c(Br)cc3o2)cc1", "Result Units": "%", "nuclei count": 140}
{"Molecule": "Cn1c(NCc2ccccc2)nc2c1c(=O)n(Cc1ccccc1)c(=O)n2C", "Result Units": "%", "nuclei count": 172}
{"Molecule": "CC(=O)N(C)C1(c2nnnn2CCOC(=O)Nc2cccc3ccccc23)CCCC1", "Result Units": "%", "nuclei count": 105}
{"Molecule": "COc1ccc(S(=O)(=O)N2CCC(C(=O)c3ccc4c(c3)OCCO4)CC2)cc1", "Result Units": "%", "nuclei count": 119}
{"Molecule": "COC(=O)CSc1cc(C)nc(NC(C)=O)n1", "Result Units": "%", "nuclei count": 110}
{"Molecule": "Clc1ccc(-n2ncc3c(NCc4cccs4)ncnc32)cc1", "Result Units": "%", "nuclei count": 125}
{"Molecule": "CCOC(=O)Cn1c(CN(C)Cc2ccccc2)nc2c1c(=O)n(C)c(=O)n2C", "Result Units": "%", "nuclei count": 94.7}
{"Molecule": "O=C1CC(NCc2ccncc2)C(=O)N1c1ccc(Cl)cc1 (configuration not stated)", "Result Units": "%", "nuclei count": 150}
{"Molecule": "CC(=O)Oc1ccc2c(C)cc(=O)[nH]c2c1", "Result Units": "%", "nuclei count": 99.4}
{"Molecule": "CC(C)(C)c1cc(-c2ccco2)c(C#N)c(SCC#N)n1", "Result Units": "%", "nuclei count": 116}
{"Molecule": "CCOC(=O)N1CCN(c2c(N3CCN(c4ccccc4OC)CC3)c(=O)c2=O)CC1", "Result Units": "%", "nuclei count": 129}
{"Molecule": "c1ccc(-n2ncc3c(NCc4cccs4)ncnc32)cc1", "Result Units": "%", "nuclei count": 118}
{"Molecule": "CCN(CC)CCCNC(=O)c1nn(-c2ccc(OC)cc2OC)c(=O)c2ccccc12", "Result Units": "%", "nuclei count": 127}
